- experimental.target: human PD-L1 (Homo sapiens)
- Construct: human PD-L1 (residues 18–134, C-terminal His-tag); His-tag (C); made in house
- Sequence (Q9NZQ7 18-134): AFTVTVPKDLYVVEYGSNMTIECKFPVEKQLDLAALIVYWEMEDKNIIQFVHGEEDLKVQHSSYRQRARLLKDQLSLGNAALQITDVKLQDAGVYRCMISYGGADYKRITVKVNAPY
- test.details: 1H-15N HMQC NMR titration of PD-L1
- Format: binding
- condition.details: 15N labeled PD-L1, line broadening upon compound addition
quantity.measured: interaction with PD-L1 (1H-15N HMQC NMR)

Examples with their reported interaction with PD-L1 (1H-15N HMQC NMR) follow.
- Cc1cccc(CBr)c1C: not-active
- c1ccc2c(c1)OCCO2: not-active
- Cc1c(COc2cc(OCc3cccc(C#N)c3)c(C=O)cc2Cl)cccc1-c1ccc2c(c1)OCCO2: active
- Cc1c(COc2cc(O)c(C=O)cc2Cl)cccc1-c1ccc2c(c1)OCCO2: active

Consider the record given below.
INPUT: interaction with PD-L1 (1H-15N HMQC NMR) lookup needed for Cc1c(CO)cccc1-c1ccc2c(c1)OCCO2 , thanks.
OUTPUT: active
